assay: Tendency to form solvates (acetone); type: physicochemical; details: generally acetone as the solvent
readoutType: Is there low tendency to form solvates?

CC(O)C(=O)O.Cc1cc2c(s1)Nc1ccccc1N=C2N1CCN(C)CC1 [Mono-L-lactate, Olanzapine Lactate] | Yes
Cc1cc2c(s1)Nc1ccccc1N=C2N1CCN(C)CC1.O=C(O)C=CC(=O)O.O=C(O)C=CC(=O)O [Dimaleate, reference compound] | No
Cc1cc2c(s1)Nc1ccccc1N=C2N1CCN(C)CC1.O=C(O)c1ccccc1 [Monobenzoate, Olanzapine Benzoate] | Yes
Cc1cc2c(s1)Nc1ccccc1N=C2N1CCN(C)CC1.Cc1cc2c(s1)Nc1ccccc1N=C2N1CCN(C)CC1.O=C(O)CCCCC(=O)O [Hemiadipate, Olanzapine Hemi-Adipate] | Yes
Cc1cc2c(s1)Nc1ccccc1N=C2N1CCN(C)CC1.O.O=C(O)c1cc2ccccc2c(Cc2c(O)c(C(=O)O)cc3ccccc23)c1O [Pamoate, olanzapine pamoate, reference compound] | No

GET /values?readout=Is there low tendency to form solvates?&item= Cc1cc2c(s1)Nc1ccccc1N=C2N1CCN(C)CC1.O=C(O)C(O)C(O)C(=O)O.O=C(O)C(O)C(O)C(=O)O [Di-L-tartrate, reference compound]
No

* * *

experiment: Water solubility test at 10 mg/ml; conditions: thermodynamic from solid
Where a name gives a salt, the structure may show the parent alone.
readoutType: solubility

Which measured solubility value corresponds to Cc1cc2c(s1)Nc1ccccc1N=C2N1CCN(C)CC1 [Monohydrochloride, Olanzapine Monohydrochloride] ?
> 10000 µg/mL
